Reference source: ChEMBL document CHEMBL1201862

tested on: HOP-92; assay: NCI tumour cell line growth inhibition, 48 h
Activity calls are given as the source filed them. Rule as the data show it: active = GI50 up to about 1.1 µM and inactive = higher.
Labels: class 1 (active), class 0 (inactive)

COc1cccc2c1C(=O)c1c(O)c3c(c(O)c1C2=O)C[C@@](O)(C(C)=O)C[C@@H]3OC1OC(C)C(O)C(N)C1Br (stereo not given in full)    class 1
C=CC(C)(C)N[C@@H](C(=O)N1CCC[C@H]1c1nc(-c2nc(C(=O)OCC=C(C)C)c(C)o2)c(C)o1)C(C)C    class 0
CC(C)(C)OC(=O)CN1C(=O)CC1CC(=O)c1ccccc1 (stereo not given)    class 0
OCC12C3C4C1C1C2C3C41CO (stereo not given)    class 0
COc1ccc(CN(CCN(C)C)c2ccccn2)cc1.Cn1c(=O)c2[nH]c(Br)nc2n(C)c1=O    class 0
